- ASSAY SUMMARY: yeast display, Sf9 membrane polyspecificity reagent, FACS + sequencing; frameworks hold sequencing errors
READOUT KIND: polyreactivity (PSR sort gate)

Before answering, review these 4 worked examples.
Supply reported polyreactivity (PSR sort gate) belonging to this sequence: "QVQLVESGGGLVQAGGSLRLSCAASGFIFPWNAMGWYRQAPGKERELVAAISFSGGSTYYADSVKGRFTISRDNAKNTVYLQMNSLKPEDTAVYYCAKRTWDLRRTRHYYWGQGTQVTVSS" low polyreactivity

Report polyreactivity (PSR sort gate) for "QVQLVESGGGLVQAGGSLRFSCAASGSIFDRYAMGWYRQAPGKERELVAAITYSGGSTYYADSVKGRFTISRDNAKNTVYLQMNSLKPEDTAVYYCATETYPQGRYYQSYDYWGQGTQVTVSS" low polyreactivity

Output measured polyreactivity (PSR sort gate) for this item: "QVQLVESGGGLVQAGGSLRLSCAASGSIFYYYTMGWYRAAPGKERELVAGISRSGDRTYYADSVKGRFTISRDNAKNTVYLQMNSLKPEVTAVYYCATRWSSARMDYWGQGTQVTVSS" high polyreactivity

Give the reported polyreactivity (PSR sort gate) for this sequence. "QVQLVESGGGLVQAGGSLRLSCAASGSIFGYYAMGWYRQAPGKERELVAAISRRGGSTYYADSVKGRFTISRDNAKNTVYLQMNSLKPEDTAVYYCAAVGGYASYFHLYYYWGQGTQVTVSS" high polyreactivity

Let's switch to this sequence now.
Provide polyreactivity (PSR sort gate) value for the following sequence: "QVQRVESGGGLVQAGGSLRLSCAASGSIFRTYAMRWYRQAPGTERELVAAITSRGSSTYYADSVKGRFTISRDNAKNTVYLQMNSLKPEDTAVYSCPADYRTSYKGVLFSMYYWGQGTQVTVSS" high polyreactivity

====

- ASSAY SUMMARY: yeast display, Sf9 membrane polyspecificity reagent, FACS + sequencing; frameworks hold sequencing errors
READOUT KIND: polyreactivity (PSR sort gate)

Worked set:
Give polyreactivity (PSR sort gate) for "QVQLVESGGGLVQAGGSLRLSCAASGSTFPTYAMGWYRQAPGKERELVAAITWSGGSTYYADSVKGRFTISRDNAKNTVYLLMNSLKPEDTAVYYCAKSTGYGRRQKRYDWGQGSQVTVSS" high polyreactivity

Dear colleague, please send me the reported polyreactivity (PSR sort gate) for "QVQLVESGGGLVQAGGSLRLSCAASGRIFSSYAMGWYRQAPGKERELVAANSRSGARTYYADSVKGRFTISRDNAKNTVYLQMNSLKPEDTAVYYCAAVTVAGYDYWGQGTQVTVSS" when you can. high polyreactivity

Look up polyreactivity (PSR sort gate) of "QVQLVESGGGLVQAGGSLRLSCAASGFTFGIYDMGWYRQAPGKERELVAAISWRGVSTYYADSVKGRFRISRDNAKNTVYLQMNSLKPEDTAVYYCNAVDTDGDLYPINYPYDYGYDYWGQGTQVTVSS" and report it. low polyreactivity

Supply reported polyreactivity (PSR sort gate) belonging to this sequence: "QVQLVESGGGLVQAGGSLRLSCAASGRIFPENAMGWYRQAPGKERELVAAINNNDGDTYYADSVKGRFTISRDNAKNTVYLQMNSLKPEDTAVYYCAADEAYWLSYVWGIGYDYWGQGTQVTVSS" low polyreactivity

Give me measured polyreactivity (PSR sort gate), please, for this sequence: "QVQLVESGGGLVQAGGSLRLSCAASGRTFVYYAMGWYRQAPGKERELVARISSSGGRTSYADSVKGRFTISRDNAKNTVYLQMNRLKPEDTAVYYCNAGRYRAGGWGVGEGYWGQGTQVTVSS" high polyreactivity

Continuing:
Give the reported value of polyreactivity (PSR sort gate) for this record: "QVQLVKSGGGLVQAGGSLRLSCAASGFIIPEYTMGWYRQAPVKERELVAAISGSGGSTYYADSVKGRFTISRDNAKNTVYLQMNSLKPEDTAVYYCAASYAVSRYLQTYAHAHGYWGQGTQVTVSS" low polyreactivity

Check the records and state polyreactivity (PSR sort gate) for "QFQLVESGGGLVQAGGSLRISCDASGRTFWYYTMGWYRKAPGKERELVASITYRGGSTYYADSVKGRFTISRDNAKNTVYLQMNSLKPEDTAVYYCNKPYFTASGDRFGYWGQGTQVTVSS" low polyreactivity

Give the reported polyreactivity (PSR sort gate) for this sequence. "QVQLVESGGGLVQAGGSLRLSCAASGLTFKRYAMGWYRQAPGKERELVAGINYSSGSTYYADSVKARFTISRDNAKNTVYLQMNSLKPEDTAVYYCAADGGISAGANSGYDYWGQGTQVTVSS" high polyreactivity

// Input: "QVQLVESGGGLVQAGGSLRLSCAASGSIFDYYAMGWYRQAPGKERELVAAINISGGDTYYADSVKGRFTISRDNAKNTVYLQMNSLKPEDTAVYYCAADWVTWWFSRVGWDYGYWGQGTQVTVSS" . Output its polyreactivity (PSR sort gate) only. low polyreactivity

State its polyreactivity (PSR sort gate): "QVQLVESGGGLVQAGGSLRLSCAASGSIFSYYTMGWYRPAPGKERELVAAISYSGGRTYYADSVKGRFTISRDNAKNTVYLQMNSLKTEDTAVYYCSAKLLQLRGRGYEYWGQGTQVTVSS" high polyreactivity
